The reported numbers originate from patent US10278971B2.

# PROTOCOL: First-in-human study: pharmacokinetics, safety and tolerability
# Format: in vivo
# CONDITION_CONTEXT: both sexes, human, plasma; single oral dose 100 mg, n=3; read-out: absolute bioavailability (F)
PARAMETER_MEASURED: bioavailability (%)
I only need the number, in %, no unit after it.

Entry Nc1ccn([C@@H]2C(F)=C(CO)[C@@H](O)[C@H]2O)c(=O)n1 has what bioavailability? 33.4

###

# PROTOCOL: Open-label dose-ranging study: pharmacokinetics, safety and tolerability of oral doses
# Type: in vivo, human
# CONDITION_CONTEXT: human, in vivo, po, 150 mg, Tmax
# Procedure: In an open-label, dose-ranging study, the pharmacokinetics (PK) of RX-3117 at various oral doses was evaluated. […] The efficacy, safety and tolerability of RX-3117 at various doses and frequencies were evaluated (see Example 4, above). […]
PARAMETER_MEASURED: Tmax (h)
I only need the number, in h, no unit after it.

Entry Nc1ccn([C@@H]2C(F)=C(CO)[C@@H](O)[C@H]2O)c(=O)n1 [RX-3117] has what Tmax? 3

###

# PROTOCOL: Open-label dose-ranging study: pharmacokinetics, safety and tolerability of oral doses
# Assay type: in vivo, human
# CONDITION_CONTEXT: human, in vivo, po, 1000 mg, T1/2
PARAMETER_MEASURED: half-life

Entry Nc1ccn([C@@H]2C(F)=C(CO)[C@@H](O)[C@H]2O)c(=O)n1 [RX-3117] has what half-life? 11.6 h

###

# PROTOCOL: First-in-human study: pharmacokinetics, safety and tolerability
# Type: in vivo
# CONDITION_CONTEXT: both sexes, human, plasma; single intravenous dose 20 mg; read-out: Tmax
PARAMETER_MEASURED: Tmax

Entry Nc1ccn([C@@H]2C(F)=C(CO)[C@@H](O)[C@H]2O)c(=O)n1 [RX-3117] has what Tmax? 15 min

###

# PROTOCOL: Open-label dose-ranging study: pharmacokinetics, safety and tolerability of oral doses
# Format: in vivo, human
# CONDITION_CONTEXT: human, in vivo, po, 60 mg, AUC0-24
PARAMETER_MEASURED: AUC(0-t)
Kindly format the answer as number then unit.

Entry Nc1ccn([C@@H]2C(F)=C(CO)[C@@H](O)[C@H]2O)c(=O)n1 [RX-3117] has what AUC(0-t)? 1570 ng·h/mL

###

# PROTOCOL: Open-label dose-ranging study: pharmacokinetics, safety and tolerability of oral doses
# Type: in vivo, human
# CONDITION_CONTEXT: human, in vivo, po, 200 mg, Cmax
PARAMETER_MEASURED: Cmax (ng/mL)
I only need the number, in ng/mL, no unit after it.

Entry Nc1ccn([C@@H]2C(F)=C(CO)[C@@H](O)[C@H]2O)c(=O)n1 has what Cmax? 637

###

# PROTOCOL: First-in-human study: pharmacokinetics, safety and tolerability
# Assay type: in vivo
# CONDITION_CONTEXT: both sexes, human, plasma; single oral dose 100 mg
PARAMETER_MEASURED: Cmax

Entry Nc1ccn([C@@H]2C(F)=C(CO)[C@@H](O)[C@H]2O)c(=O)n1 [RX-3117] has what Cmax? 311 ng/mL

###

# PROTOCOL: Open-label dose-ranging study: pharmacokinetics, safety and tolerability of oral doses
# Assay type: in vivo, human
# CONDITION_CONTEXT: human, in vivo, po, 100 mg, Tmax
PARAMETER_MEASURED: Tmax (h)
I only need the number, in h, no unit after it.

Entry Nc1ccn([C@@H]2C(F)=C(CO)[C@@H](O)[C@H]2O)c(=O)n1 [RX-3117] has what Tmax? 2
